System: synthesis of LTB4 in human whole blood
protocol-notes: Human whole blood LTB4 production inhibition assay
Assay type: cell-based
experimental-conditions: calcimycin stimulated, read-out: hWB LTB4 IC50
pIC50: −log10 of the molar value.

{"chemical-smiles": "Nc1ncc(-c2ccc(C3(c4noc(-c5ccc(N6CCOCC6)nc5)n4)CCC3)cn2)cn1", "pIC50": 6.74}
{"chemical-smiles": "Nc1ncc(-c2ccc(C3(c4noc(-c5cnn(CC(F)(F)F)c5)n4)CCC3)cn2)cn1", "pIC50": 6.77}
{"chemical-smiles": "CN(C)C(=O)Cn1cc(-c2nc(C3(c4ccc(-c5cnc(N)cn5)nc4)CCC3)no2)cn1", "pIC50": 6.77}
{"chemical-smiles": "Nc1ncc(-c2ccc(C3(c4noc(-c5cnn(C6COC6)c5)n4)CCC3)cn2)cn1", "pIC50": 7.28}
{"chemical-smiles": "Nc1ncc(-c2ccc(C3(c4noc(-c5cn[nH]c5)n4)CCC3)cn2)cn1", "pIC50": 6.85}
{"chemical-smiles": "Nc1ncc(-c2ccc(C3(c4noc(-c5cnccc5N)n4)CCC3)cn2)cn1", "pIC50": 6.08}
{"chemical-smiles": "CCOC(=O)CNc1ccc(-c2nc(C3(c4ccc(-c5cnc(N)nc5)nc4)CCC3)no2)cn1", "pIC50": 6.77}
{"chemical-smiles": "CCNC(=O)Cn1cc(-c2nc(C3(c4ccc(-c5cnc(N)nc5)nc4)CCC3)no2)cn1", "pIC50": 6.26}

====

study-target: recombinant human FLAP protein (Homo sapiens (Human), UniProt P20292)
Sequence (P20292 whole entry): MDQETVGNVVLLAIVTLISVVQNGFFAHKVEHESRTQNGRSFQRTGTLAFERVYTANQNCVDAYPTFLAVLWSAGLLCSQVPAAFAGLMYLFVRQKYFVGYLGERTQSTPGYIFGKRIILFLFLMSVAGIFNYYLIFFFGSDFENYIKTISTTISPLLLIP
protocol-notes: FLAP binding assay (Scintillation Proximity Assay, displacement of [125I]L-691,831)
experimental-conditions: read-out: FLAP SPA IC50
pIC50: −log10 of the molar value.

{"molecule": "Nc1ncc(-c2ccc(C3(c4noc(-c5ccc(N6CCNC(=O)C6)nc5)n4)CCC3)cn2)cn1", "pIC50": 8.74}
{"molecule": "Cn1cc(-c2nc(C3(c4ccc(-c5cnc(N)nc5)nc4)CCC3)no2)c(C(F)(F)F)n1", "pIC50": 8.04}
{"molecule": "CC(C)NC(=O)Cn1cc(-c2nc(C3(c4ccc(-c5cnc(N)nc5)nc4)CCC3)no2)cn1", "pIC50": 7.10}
{"molecule": "Nc1ncc(-c2ccc(C3(c4noc(-c5ccc(=O)[nH]c5)n4)CCC3)cn2)cn1", "pIC50": 7.32}
{"molecule": "Nc1ncc(-c2ccc(C3(c4noc(-c5cnn(CC(F)(F)F)c5)n4)CCC3)cn2)cn1", "pIC50": 8.12}
{"molecule": "Nc1ncc(-c2ccc(C3(c4noc(-c5ccc(N6CCC[C@@H]6CO)nc5)n4)CCC3)cn2)cn1", "pIC50": 8.51}
{"molecule": "Nc1ncc(-c2ccc(C3(c4noc(-c5ccncc5)n4)CCOCC3)nc2)cn1", "pIC50": 6.01}
{"molecule": "CS(=O)(=O)c1cccc(-c2nc(C3(c4ccc(-c5cnc(N)nc5)nc4)CCC3)no2)c1", "pIC50": 7.11}
{"molecule": "Nc1ncc(-c2ccc(C3(c4noc(-c5cnn(C6CCS(=O)(=O)C6)c5)n4)CCC3)cn2)cn1 (stereo not shown)", "pIC50": 7.55}
{"molecule": "COCCNc1ccc(-c2nc(C3(c4ccc(-c5cnc(N)nc5)nc4)CCC3)no2)cn1", "pIC50": 8.55}
{"molecule": "CC(C)(O)CNc1ccc(-c2nc(C3(c4ccc(-c5cnc(N)nc5)nc4)CCC3)no2)cn1", "pIC50": 8.68}
{"molecule": "Nc1ncc(-c2ccc(C3(c4noc(-c5cocn5)n4)CCC3)cn2)cn1", "pIC50": 6.96}
{"molecule": "Cc1nc(C)c(-c2nc(C3(c4ccc(-c5cnc(N)nc5)nc4)CCC3)no2)s1", "pIC50": 8.09}
{"molecule": "Cn1cc(-c2nc(C3(c4ccc(-c5cnc(N)nc5)nc4)CCC3)no2)cn1", "pIC50": 7.89}
{"molecule": "CC(C)(O)Cn1cc(-c2nc(C3(c4ccc(-c5ccc(N)nc5)nc4)CCC3)no2)cn1", "pIC50": 7.47}
{"molecule": "Cc1cc(-c2nc(C3(c4ccc(-c5cnc(N)nc5)cn4)CCOCC3)no2)n(C)n1", "pIC50": 6.27}

====

study-target: recombinant human FLAP protein (Homo sapiens (Human))
protocol-notes: FLAP binding assay (Scintillation Proximity Assay, displacement of [125I]L-691,831)
experimental-conditions: read-out: FLAP SPA IC50
pIC50: −log10 of the molar value.
Listing of entries alongside the reported pIC50.

{"chemical-smiles": "Nc1ncc(-c2ccc(C3(c4noc(-c5ccc(NCCO)nc5)n4)CCC3)cn2)cn1", "pIC50": 8.72}
{"chemical-smiles": "Nc1ncc(-c2ccc(C3(c4noc(-c5cn[nH]c5)n4)CCC3)cn2)cn1", "pIC50": 8.15}
{"chemical-smiles": "Nc1ncc(-c2ccc(C3(c4noc(-c5cccnc5)n4)CCOCC3)nc2)cn1", "pIC50": 6.24}
{"chemical-smiles": "Nc1ccc(-c2ccc(C3(c4noc(-c5cnn(C6COC6)c5)n4)CCC3)cn2)cn1", "pIC50": 7.89}

====

study-target: recombinant human FLAP protein (Homo sapiens (Human))
protocol-notes: FLAP binding assay (Scintillation Proximity Assay, displacement of [125I]L-691,831)
experimental-conditions: read-out: FLAP SPA IC50
Reported log10 of IC50 values for the following compounds.
endpoint-name: log10 of IC50 (log10 of the value in nM)

{"compound": "Nc1ncc(-c2ccc(C3(c4noc(-c5ccc(N6CCNCC6)nc5)n4)CCC3)cn2)cn1", "log10 of IC50": 0.43}
{"compound": "CC(C)(C(N)=O)n1cc(-c2nc(C3(c4ccc(-c5cnc(N)nc5)nc4)CCC3)no2)cn1", "log10 of IC50": 2.20}
{"compound": "Nc1ncc(-c2ccc(C3(c4noc(-c5nc[nH]n5)n4)CCC3)cn2)cn1", "log10 of IC50": 2.30}
{"compound": "CS(=O)(=O)CCNc1ccc(-c2nc(C3(c4ccc(-c5cnc(N)nc5)nc4)CCC3)no2)cn1", "log10 of IC50": 0.68}
{"compound": "Nc1ncc(-c2ccc(C3(c4noc(-c5cnn(CCF)c5)n4)CCC3)cn2)cn1", "log10 of IC50": 0.98}
{"compound": "Nc1ncc(-c2ccc(C3(c4noc(-c5cnc(N6CCNCC6)cn5)n4)CCC3)cn2)cn1", "log10 of IC50": 0.90}
{"compound": "Nc1ncc(-c2ccc(C3(c4noc(-c5cccnc5)n4)CCC3)cn2)cn1", "log10 of IC50": 1.40}
{"compound": "CS(=O)(=O)c1ccc(-c2nc(C3(c4ccc(-c5cnc(N)nc5)nc4)CCC3)no2)cc1", "log10 of IC50": 1.04}
{"compound": "Nc1ncc(-c2ccc(C3(c4noc(-c5cc(N)[nH]n5)n4)CCC3)cn2)cn1", "log10 of IC50": 1.48}
{"compound": "CN(CC1CCCO1)C(=O)Cn1cc(-c2nc(C3(c4ccc(-c5cnc(N)nc5)nc4)CCC3)no2)cn1 (centres unmarked)", "log10 of IC50": 1.92}
{"compound": "CN(C)C(=O)Cn1cc(-c2nc(C3(c4ccc(-c5cnc(N)nc5)nc4)CCC3)no2)cn1", "log10 of IC50": 1.92}
{"compound": "CC(C)(N)Cn1cc(-c2nc(C3(c4ccc(-c5cnc(N)nc5)nc4)CCC3)no2)cn1", "log10 of IC50": 1.83}
{"compound": "Nc1ncc(-c2ccc(C3(c4noc(-c5cn[nH]c5)n4)CCC3)nc2)cn1", "log10 of IC50": 1.66}
{"compound": "CNc1ncc(-c2ccc(C3(c4noc(-c5cnn(CC(C)(C)O)c5)n4)CCC3)cn2)cn1", "log10 of IC50": 1.86}
{"compound": "Cn1cc(-c2nc(C3(c4ccc(-c5cnc(N)nc5)nc4)CCC3)no2)ccc1=O", "log10 of IC50": 2.04}
{"compound": "CC(C)(C)OC(=O)N1CCN(c2ccc(-c3nc(C4(c5ccc(-c6cnc(N)nc6)nc5)CCC4)no3)cn2)CC1", "log10 of IC50": 0.58}
{"compound": "CNc1ncccc1-c1nc(C2(c3ccc(-c4cnc(N)nc4)nc3)CCC2)no1", "log10 of IC50": 1.45}
{"compound": "Nc1ncc(-c2ccc(C3(c4noc(-c5ccc(NCC6(O)CC6)nc5)n4)CCC3)cn2)cn1", "log10 of IC50": 0.26}
{"compound": "CNC(=O)Cn1cc(-c2nc(C3(c4ccc(-c5cnc(N)nc5)nc4)CCC3)no2)cn1", "log10 of IC50": 1.34}
{"compound": "COc1ccc(-c2nc(C3(c4ccc(-c5cnc(N)nc5)nc4)CCC3)no2)c(OC)n1", "log10 of IC50": 0.86}
{"compound": "Nc1ncc(-c2ccc(C3(c4noc(-c5ccc(N6CCN[C@H](C(=O)O)C6)nc5)n4)CCC3)cn2)cn1", "log10 of IC50": 0.89}
{"compound": "Nc1ncc(-c2ccc(C3(c4noc(-c5c[nH]nn5)n4)CCC3)cn2)cn1", "log10 of IC50": 2.15}
{"compound": "CS(=O)(=O)N1CCN(c2ccc(-c3nc(C4(c5ccc(-c6cnc(N)nc6)nc5)CCC4)no3)cn2)CC1", "log10 of IC50": 0.43}
{"compound": "Nc1ncc(-c2ccc(C3(c4noc(-c5cccc(S(N)(=O)=O)c5)n4)CCC3)cn2)cn1", "log10 of IC50": 1.76}
{"compound": "COC(=O)c1ccc(-c2nc(C3(c4ccc(-c5cnc(N)nc5)nc4)CCC3)no2)cn1", "log10 of IC50": 1.40}
{"compound": "CC(C)(Cn1cc(-c2nc(C3(c4ccc(-c5cnc(N)nc5)nc4)CCC3)no2)cn1)C(N)=O", "log10 of IC50": 1.81}
{"compound": "Cn1cccc(-c2nc(C3(c4ccc(-c5cnc(N)nc5)nc4)CCC3)no2)c1=O", "log10 of IC50": 1.71}
{"compound": "Nc1ncc(-c2ccc(C3(c4noc(-c5ccnnc5)n4)CCC3)cn2)cn1", "log10 of IC50": 2.04}
{"compound": "Cc1nc(N)ncc1-c1ccc(C2(c3noc(-c4cnn(CC(C)(C)O)c4)n3)CCC2)cn1", "log10 of IC50": 2.92}
{"compound": "CN(C(=O)Cn1cc(-c2nc(C3(c4ccc(-c5cnc(N)nc5)nc4)CCC3)no2)cn1)C(C)(C)C", "log10 of IC50": 1.15}
{"compound": "COC1CCN(C(=O)Cn2cc(-c3nc(C4(c5ccc(-c6cnc(N)nc6)nc5)CCC4)no3)cn2)C1 (centres unmarked)", "log10 of IC50": 2.40}
{"compound": "Nc1ncc(-c2ccc(C3(c4noc(-c5cnn(CC(=O)NC6CC6)c5)n4)CCC3)cn2)cn1", "log10 of IC50": 1.80}
